The measurements presented in this section are drawn from the RepoRT retention time repository (doi:10.1016/j.foodchem.2021.129757).

Recorded LC retention time for the following compounds
test: RP, Phenomenex Luna Omega Polar C18, 100 × 2.1 mm, 1.6 µm, 40 °C, 0.5 mL/min, estimated dead time 0.44 min; A: water + 0.5% formic acid; B: acetonitrile + 0.5% formic acid; gradient (min/%B) 0/5 3/50 3.1/100 5/100 5.1/5 7/5; details: stereoisomer not certain
Write down the numeric answer in min and omit the unit.

Example compounds with recorded LC retention time:
>  <Compound>
O=c1c(O)c(-c2ccc(O)cc2)oc2cc(O)cc(O)c12

>  <Endpoint unit>
min

>  <LC retention time>
3.7

$$$$
>  <Compound>
O=c1c(OS(=O)(=O)O)c(-c2ccc(O)c(O)c2)oc2cc(O)cc(O)c12 [Quercetin 3-O-sulfate]

>  <Endpoint unit>
min

>  <LC retention time>
2.93

$$$$
>  <Compound>
O=c1oc2cc(O)ccc2c2ccccc12

>  <Endpoint unit>
min

>  <LC retention time>
3.72

$$$$

Data point: COc1cc(-c2oc3cc(O)cc(O)c3c(=O)c2O)ccc1O ; LC retention time = 3.7

Field LC retention time (entry COc1ccc(C2CC(=O)c3c(O)cc(O)cc3O2)cc1O (centres undefined) ) reads 3.57

Value of LC retention time reported for the compound O=C(O)CCc1ccc(O)c(O)c1 [Dihydrocaffeic acid] is 2.6

====

test: RP, 150 × 2.1 mm, 2.6 µm, 40 °C, 0.35 mL/min, estimated dead time 0.94 min; A: water + 0.1% formic acid, pH 3; B: acetonitrile + 0.1% formic acid, pH 3; gradient (min/%B) 0/0 1/5 7/45 8.5/80 10.5/80 11/5 12/5; conditions: stereoisomer not certain
Tag: Met if measured LC retention time is not below 5 min, Not met if it is.

Q: Record O=c1ccc2cc(OC3OC(CO)C(O)C(O)C3O)c(O)cc2o1 (configuration not stated) ; criterion: LC retention time no lower than 5 min. Met?
A: Not met

Q: Would you say O=C1CC(c2ccc(O)cc2)Oc2cc(OC3OC(CO)C(O)C(O)C3O)cc(O)c21 (configuration not stated) [Naringenin 7-O-glucoside] shows LC retention time at minimum 5 min?
A: Met

Q: Check if LC retention time >= 5 min (inclusive). Item: O=c1cc(-c2ccc(O)c(O)c2)oc2c(C3OC(CO)C(O)C(O)C3O)c(O)cc(O)c12 (configuration not stated)
A: Met

Q: LC retention time >= 5 min for COc1cc(C=CC(=O)O)cc(OC)c1O ?
A: Not met

Q: Please check the record O=c1c(O)c(-c2ccc(OC3OC(CO)C(O)C(O)C3O)c(O)c2)oc2cc(O)cc(O)c12 (configuration not stated) [Quercetin 4-glucoside] and state if its LC retention time is at or above 5 min.
A: Met

Q: Identify whether the reported LC retention time of the following compound is 5 min or greater: COc1cc(/C=C/C(=O)O)ccc1O
A: Met

Q: Quick check: does CC1OC(OCC2OC(Oc3c(-c4ccc(O)cc4)oc4cc(O)cc(O)c4c3=O)C(O)C(O)C2O)C(O)C(O)C1O (configuration not stated) [Kaempferol 3-O-rutinoside] have LC retention time greater than or equal to 5 min?
A: Met

Q: Does the compound O=C(O)c1cc(=O)c2ccccc2[nH]1 have recorded LC retention time that is 5 min or more?
A: Not met

Q: Please check the record Nc1c(O)cccc1C(=O)O [3-Hydroxyanthranilic acid] and state if its LC retention time is at or above 5 min.
A: Not met

Q: Is the recorded value of LC retention time equal to or greater than 5 min for this compound? COc1cc2ccc(=O)oc2cc1O
A: Met

Q: Is it the case that O=c1cc(-c2ccc(O)cc2)oc2cc(OC3OC(CO)C(O)C(O)C3O)cc(O)c12 (configuration not stated) [Apigenin 7-O-glucoside] has LC retention time reaching or exceeding 5 min?
A: Met

Q: State whether the measured LC retention time reaches 5 min, counting equality as reaching it, for NC(=O)Cc1c[nH]c2ccccc12 [3-Indoleacetamide]
A: Met

Q: Please indicate if the recorded LC retention time for O=C(NC(O)C(=O)O)c1ccccc1 (stereo not drawn) [Alpha-hydroxyhippuric acid] meets or exceeds 5 min.
A: Not met

Q: Could you please find out whether O=C(O)C(O)CCc1ccccc1 (configuration not stated) [2-hydroxy-4-phenylbutyric acid] has LC retention time that meets 5 min or exceeds it?
A: Met

====

experiment: RP, Waters ACQUITY UPLC HSS T3, 100 × 2.1 mm, 50 °C; A: water + 0.1% formic acid, pH 3; B: 30% methanol + 70% acetonitrile + 0.1% formic acid, pH 3; gradient (min/%B) 0/5 1/8 2/15 3/40 4/70 4.5/100 5/100 6.4/100 6.6/5 6.8/5 7/5; conditions: stereoisomer not certain
Where a name gives a salt, the structure may show the parent alone.
Classify by measured LC retention time: Met if it is equal to or exceeds 3 min, Not met if it is smaller.

>  <Compound>
O=C(O)C1(O)CC(O)C(O)C(O)C1 (stereo unspecified) [Quinic acid]

>  <Group label>
Not met

$$$$

Q: hey, is LC retention time for this one >= 3 min? O=C(O)C=Cc1ccccc1 [Cinnamic acid-trans]
A: Not met

Q: Evaluate Cn1c(=O)[nH]c2ncn(C)c2c1=O [Paraxanthine] : LC retention time at minimum 3 min?
A: Not met

Q: Does the compound Cn1cnc2c1c(=O)[nH]c(=O)n2C [Theobromine] have recorded LC retention time that is 3 min or more?
A: Not met

Q: Record O=c1cc(-c2ccc(O)c(O)c2)oc2cc(O)cc(O)c12 [Luteolin] ; criterion: LC retention time no lower than 3 min. Met?
A: Met

Q: Reported LC retention time at or above 3 min? Cc1ccccc1OS(=O)(=O)O [o-Cresol sulfate]
A: Met

Q: Assess whether reported LC retention time for CS(=O)CCCN=C=S (stereo unspecified) [Iberin] sits at 3 min or higher.
A: Met

Q: Record Cn1c(=O)[nH]c2[nH]c(=O)[nH]c2c1=O [1-Methyluric acid] ; criterion: LC retention time no lower than 3 min. Met?
A: Not met

Q: Say whether O=Cc1ccccc1O [2-Hydroxybenzaldehyde] shows LC retention time of 3 min or more.
A: Met

Q: Answer whether LC retention time of CC(=O)CCC(=O)O [Levulinic acid] is greater than or equal to 3 min.
A: Not met

Q: State whether the measured LC retention time reaches 3 min, counting equality as reaching it, for COc1cc(C(=O)O)ccc1O [Vanillic acid]
A: Met

====

test: RP, Agilent ZORBAX Eclipse XDB-C18, 100 × 2.1 mm, 1.8 µm, 50 °C, 0.4 mL/min, estimated dead time 0.55 min; A: water + 0.1% formic acid, pH 3; B: methanol + 0.1% formic acid, pH 3; gradient (min/%B) 0/2 10/100 14.5/100 14.51/2 16.5/2; conditions: stereoisomer not certain
Readout: LC retention time (min)
Numbers only here, please. The scale is min.

See these solved cases before continuing.
>  <Compound>
CCCCCCCCCCCCCCCCCc1cc(O)cc(O)c1

>  <Endpoint unit>
min

>  <LC retention time>
11.1

$$$$
>  <Compound>
O=C(O)c1ccccc1

>  <Endpoint unit>
min

>  <LC retention time>
5.17

$$$$
>  <Compound>
Cc1c(C)c2c(c(C)c1O)CCC(C)(CCCC(C)CCCC(C)CCCC(C)C)O2 (stereo unspecified)

>  <Endpoint unit>
min

>  <LC retention time>
12.5

$$$$
>  <Compound>
CC1OC(OC2C(Oc3cc(O)c4c(c3)OC(c3ccc(O)cc3)CC4=O)OC(CO)C(O)C2O)C(O)C(O)C1O (stereo unspecified)

>  <Endpoint unit>
min

>  <LC retention time>
5.22

$$$$
>  <Compound>
COc1cc(CC2COC(c3ccc(O)c(OC)c3)C2CO)ccc1O (single isomer, unassigned; (+)) [(+)-Lariciresinol]

>  <Endpoint unit>
min

>  <LC retention time>
5.5

$$$$

The value of LC retention time measured for the compound O=C(O)Cc1ccc(O)c(O)c1 [3,4-Dihydroxyphenylacetic acid] turned out to be 2.55

====

test: Other, Phenomenex Kinetex PFP, 100 × 4.6 mm, 2.6 µm, 35 °C, 1.5 mL/min, estimated dead time 0.71 min; A: water + 0.1% trifluoroacetic acid, pH 2; B: acetonitrile + 0.1% trifluoroacetic acid, pH 2; gradient (min/%B) 0/1 7/7.5 14/7.6 17/10 18.5/12 20/12.5 24/30 25/90 25.1/1 32/1; settings: stereoisomer not certain
Examples of molecules with documented LC retention time follow.
# value in min; strip the unit string

>  <Molecule>
COc1cc(CC(=O)O)ccc1O

>  <Endpoint unit>
min

>  <Readout value>
18.8

$$$$
>  <Molecule>
COc1cc(/C=C/C(=O)O)ccc1O

>  <Endpoint unit>
min

>  <Readout value>
20.7

$$$$
>  <Molecule>
O=C(O)CNC(=O)c1ccccc1

>  <Endpoint unit>
min

>  <Readout value>
7.15

$$$$
>  <Molecule>
O=C(O)c1ccccc1

>  <Endpoint unit>
min

>  <Readout value>
15.4

$$$$
>  <Molecule>
O=C(O)c1cccc(O)c1O [2,3-Dihydroxybenzoic acid]

>  <Endpoint unit>
min

>  <Readout value>
9.73

$$$$

Lookup result for O=C(O)c1ccc(O)cc1O [2,4-Dihydroxybenzoic acid] ; measured LC retention time: 10.9

Entry O=C(O)c1c(O)cc(O)cc1O [2,4,6-trihydroxybenzoic acid] — recorded LC retention time = 9.72
